system-name: EBP-Ig (N-terminal 225 amino acids of the human EPO receptor joined to an Ig heavy chain) (Homo sapiens, UniProt P19235)
Construct: Ig heavy chain (fusion partner); made in house; host or cells: NSO cells (secreted into conditioned media)
Sequence (P19235 25-250 limits assumed): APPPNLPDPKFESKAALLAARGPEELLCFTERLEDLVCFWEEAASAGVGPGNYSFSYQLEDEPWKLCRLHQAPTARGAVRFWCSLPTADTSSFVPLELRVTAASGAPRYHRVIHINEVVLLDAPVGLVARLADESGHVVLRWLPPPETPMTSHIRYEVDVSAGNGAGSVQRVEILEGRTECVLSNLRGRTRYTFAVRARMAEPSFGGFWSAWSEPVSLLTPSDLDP
method-summary: Inhibition of [125I]EPO binding to immobilized EBP-Ig (EPO binding protein-Ig), scintillation Flash plate competition assay
measurement-setup: 50 μM test compound; 0.5 nM [125I]EPO; average % inhibition
Would you mind classing the entries by % inh @ 50 μM (Inhibition of EPO binding to EBP-Ig)? Ranges: 0 (below 40%), 1 (40% to below 50%), 2 (50% or more)

compound | assigned-category
COC(=O)C(CCCCN)N(Cc1ccc(OCc2ccccc2)cc1)Cc1cccc(NC(=O)c2ccc3ccccc3c2)c1 (stereo not drawn) [compound 121] | 1
O=C(O)CCC(C(=O)O)N(C/C=C/c1ccc(NC(=O)c2ccncc2)cc1)Cc1ccc(OCc2ccccc2)cc1 (stereo not drawn) [compound 86] | 0
COC(=O)C(CCCCN)N(Cc1ccc(OCc2ccccc2)cc1)Cc1cccc(NC(=O)c2ccco2)c1 (stereo not drawn) [cpd 117] | 0
COC(=O)C(CCCCNC(=O)OC(C)(C)C)N(C/C=C/c1cccc([N+](=O)[O-])c1)C/C=C/c1cccc([N+](=O)[O-])c1 (stereo not drawn) [compound 183] | 0
O=C(O)CCC(=O)NCCCCC(C(=O)NCCCCCCCCCCCCNC(=O)C(CCCCNC(=O)CCC(=O)O)N(Cc1ccc(OCc2ccccc2)cc1)Cc1ccc(OCc2ccccc2)cc1)N(Cc1ccc(OCc2ccccc2)cc1)Cc1ccc(OCc2ccccc2)cc1 (stereo not drawn) [compound 270] | 2

Class (by measured % inh @ 50 μM (Inhibition of EPO binding to EBP-Ig)) for O=C(O)CCCC(=O)NCCCCC(C(=O)NCCCOCCCCOCCCNC(=O)C(CCCCNC(=O)CCCC(=O)O)N(Cc1ccc(OCc2ccccc2)cc1)Cc1ccc(OCc2ccccc2)cc1)N(Cc1ccc(OCc2ccccc2)cc1)Cc1ccc(OCc2ccccc2)cc1 (stereo not drawn) [compound 266]
2

In plain terms, what class is CC(C)(CC(=O)O)CC(=O)NCCCCC(C(=O)NCCOCCOCCNC(=O)C(CCCCNC(=O)CC(C)(C)CC(=O)O)N(Cc1ccc(OCc2ccccc2)cc1)Cc1ccc(OCc2ccccc2)cc1)N(Cc1ccc(OCc2ccccc2)cc1)Cc1ccc(OCc2ccccc2)cc1 (stereo not drawn) [compound 264] ?
2

For the record CC(=O)O.COC(=O)c1cccc(C=CCNC(CCCCNC(=O)OCc2ccccc2)C(=O)OC)c1 (stereo not drawn) [compound 321] , report the class its % inh @ 50 μM (Inhibition of EPO binding to EBP-Ig) corresponds to.
1

Classify this compound: O=C(O)CCCC(=O)NCCCCC(C(=O)NCCOCCOCCNC(=O)C(CCCCNC(=O)CCCC(=O)O)N(Cc1ccc(OCc2ccccc2)cc1)Cc1ccc(OCc2ccccc2)cc1)N(Cc1ccc(OCc2ccccc2)cc1)Cc1ccc(OCc2ccccc2)cc1 (stereo not drawn) [compound 263]
2

Band of CC(C)(C)OC(=O)NCCCCC(C(=O)O)N(C/C=C/c1ccc([N+](=O)[O-])cc1)C/C=C/c1ccc([N+](=O)[O-])cc1 (stereo not drawn) [compound 179] ?
0

Note: place this compound into its band. Item: COc1ccc(CCNC(=O)C(CCCCN)N(C/C=C/c2ccccc2)C/C=C/c2ccccc2)cc1OC (stereo not drawn) [compound 221]
1

Consider CCCCC(=O)Nc1cccc(CN(Cc2ccc(OCc3ccccc3)cc2)C(CCCCN)C(=O)OC)c1 (stereo not drawn) [compound 116] . To which % inh @ 50 μM (Inhibition of EPO binding to EBP-Ig) class does it belong?
0

For the record NCCCCC(C(=O)NCc1ccc(OCC=Cc2ccccc2)cc1)N(CC=Cc1ccccc1)CC=Cc1ccccc1 (stereo not drawn) [compound 220] , report the class its % inh @ 50 μM (Inhibition of EPO binding to EBP-Ig) corresponds to.
1

Entry Cc1ccc(Oc2cccc(/C=C/C(=O)N(Cc3cccc(Oc4ccccc4)c3)C(CCCCN)C(=O)O)c2)cc1 (stereo not drawn) [compound 287] belongs to which category?
0

Field: class (% inh @ 50 μM (Inhibition of EPO binding to EBP-Ig)) — entry: CCOC(=O)c1ccc(NC(=O)NCCCCC(C(=O)NCCc2ccc(OC)cc2)N(C/C=C/c2ccccc2)C/C=C/c2ccccc2)cc1 (stereo not drawn) [compound 231]
0

Tag the class for Cc1ccc(C(=O)Nc2cccc(CN(Cc3cccc(Oc4ccccc4)c3)C(CCC(=O)O)C(=O)NCCOCCOCCNC(=O)C(CCC(=O)O)N(Cc3cccc(NC(=O)c4ccc(C)cc4)c3)Cc3cccc(Oc4ccccc4)c3)c2)cc1 (stereo not drawn) [compound 249]
2

# bin label for COc1ccc(C(=O)Nc2ccc(/C=C/CN(Cc3ccc(OCc4ccccc4)cc3)C(CCC(=O)O)C(=O)O)cc2)cc1 (stereo not drawn) [compound 82]
0

Kindly identify the class of COc1cccc(CCNC(=O)C(CCCCN)N(C/C=C/c2ccccc2)C/C=C/c2ccccc2)c1 (stereo not drawn) [compound 222] .
2

State the class of the compound shown: O=C(O)CC(C(=O)O)N(CC=Cc1cccc(Oc2ccccc2)c1)CC=Cc1cccc(Oc2ccccc2)c1 (stereo not drawn) [cpd 107, N,N-bis(3-Phenoxycinnamyl)Asp-OH]
2

Where would COC(=O)C(CCCCNC(=O)OC(C)(C)C)N(C/C=C/c1ccc([N+](=O)[O-])cc1)C/C=C/c1ccc([N+](=O)[O-])cc1 (stereo not drawn) [compound 178] land among the classes by reported % inh @ 50 μM (Inhibition of EPO binding to EBP-Ig)?
0
